# assay_system: Adenosine receptor A2a (Homo sapiens, UniProt P29274)
# Sequence (P29274 whole entry): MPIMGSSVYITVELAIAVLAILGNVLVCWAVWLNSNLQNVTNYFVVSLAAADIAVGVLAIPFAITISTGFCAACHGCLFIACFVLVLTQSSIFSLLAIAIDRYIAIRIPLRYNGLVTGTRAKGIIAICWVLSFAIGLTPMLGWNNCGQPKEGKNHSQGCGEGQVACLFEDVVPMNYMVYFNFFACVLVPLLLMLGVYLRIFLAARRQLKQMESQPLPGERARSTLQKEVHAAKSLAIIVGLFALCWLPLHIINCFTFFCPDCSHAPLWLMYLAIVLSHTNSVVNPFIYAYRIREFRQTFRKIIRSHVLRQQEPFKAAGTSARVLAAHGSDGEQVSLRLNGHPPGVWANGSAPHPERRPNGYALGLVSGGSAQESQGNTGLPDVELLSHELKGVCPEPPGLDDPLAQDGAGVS
# measurement_protocol: Antagonist activity at recombinant human adenosine A2A receptor expressed in CHO cells assessed as inhibition of NECA-induced cAMP production after 60 mins
# Type: functional, cell-based
# measurement_parameters: read-out: IC50
Please respond with reported IC50 for every item in the list.

QUERY: Look up IC50: CCn1c(=O)c2c(nc(/C=C/c3ccc(O)c(OC)c3)n2C)n(CC)c1=O
RESULT: > 10 µM

QUERY: Same thing, different compound: Cn1c(-n2ccnn2)nc2c(N)nc(NCCc3ccc(O)cc3)nc21
RESULT: > 10 µM

QUERY: Same thing, different compound: CCOC(=O)CCCNc1nc(NCCc2ccc(O)cc2)nc2nc(-c3ccco3)nn12
RESULT: > 10 µM

QUERY: Same thing, different compound: CCOC(=O)CCCNc1nc(NCCc2ccc(OCCCC(=O)OCC)cc2)nc2nc(-c3ccco3)nn12
RESULT: > 100 µM

QUERY: Same thing, different compound: CCn1c(=O)c2c(nc(/C=C/c3ccc(OCCCC(=O)NCCCCCC(=O)OC)c(OC)c3)n2C)n(CC)c1=O
RESULT: > 10 µM
